Property: chromatographic logD; scope: individual compounds
test: CHI Log D procedure; format: physicochemical; settings: pH 7.4, CHI Log D
The reply should be a number, written without any unit.

-- ask Given CC(=O)N1CCC[C@]12CC=CCCCC1(CCCC=CCCCOC(=O)N3CC[C@@](C(=O)N[C@@H](Cc4ccccc4Cl)C(=O)N[C@@H](Cc4csc5ccccc45)C(=O)N[C@@H](CCC(N)=O)C(N)=O)(C3)NC(=O)[C@H](CC(N)=O)NC(=O)[C@H](Cc3ccccc3)NC(=O)[C@H](C)NC(=O)[C@H](Cc3ccccc3)NC(=O)[C@H](CN(CC(=O)O)CC(F)(F)F)NC(=O)[C@H](CC(=O)O)NC1=O)NC(=O)[C@H](CC(C)(C)C)NC(=O)[C@H](CC(=O)O)NC2=O (stereo partly drawn) [I-1008] , respond with its chromatographic logD.
-- reply 2.43

-- ask Given CC(=O)N1CCC[C@]12CC=CCCCC1(CCCC=CCCCCCC[C@@](C)(C(=O)N[C@@H](Cc3ccccc3)C(=O)N[C@@H](Cc3csc4ccccc34)C(=O)N[C@@H](CCC(N)=O)C(N)=O)NC(=O)[C@H](C(C)C)NC(=O)[C@H](Cc3ccccc3)NC(=O)[C@H](C)NC(=O)[C@H](C)NC(=O)[C@H](CC(=O)O)NC(=O)[C@H](CC(=O)NC3CC3)NC1=O)NC(=O)[C@H](C)NC(=O)[C@H](CC(=O)O)NC2=O (stereo partly drawn) [I-538] , respond with its chromatographic logD.
-- reply 2.75

-- ask Given CC(=O)N1CCC[C@]12CC=CCCCC1(CCCC=CCCCOC(=O)N3CC[C@@](C(=O)N[C@@H](Cc4ccsc4)C(=O)N[C@@H](Cc4csc5ccccc45)C(=O)N[C@@H](CCC(N)=O)C(=O)N[C@@H](CCCCNC(=O)c4ccc5ccccc5c4)C(N)=O)(C3)NC(=O)[C@H](CC(N)=O)NC(=O)[C@H](Cc3ccccc3)NC(=O)[C@H](C)NC(=O)[C@H](C)NC(=O)[C@H](CC(=O)O)NC(=O)[C@H](CC(=O)O)NC1=O)NC(=O)[C@H](CC(C)(C)C)NC(=O)[C@H](CC(=O)O)NC2=O (stereo partly drawn) [I-915] , respond with its chromatographic logD.
-- reply 2.33

More entries:
-- ask Given CC(=O)N1CCC[C@]12CC=CCCCC1(CCCC=CCCCOC(=O)N3CC[C@@](C(=O)N[C@@H](Cc4ccsc4)C(=O)N[C@@H](Cc4csc5ccccc45)C(=O)N[C@@H](CCC(N)=O)C(N)=O)(C3)NC(=O)[C@H]([C@@H](C)O)NC(=O)[C@H](Cc3ccccc3)NC(=O)[C@H](C)NC(=O)[C@H](C)NC(=O)[C@H](CC(=O)O)NC(=O)[C@H](CC(=O)O)NC1=O)NC(=O)[C@H](CC(C)(C)C)NC(=O)[C@H](CC(=O)O)NC2=O (stereo partly drawn) [I-809] , respond with its chromatographic logD.
-- reply 2.1

-- ask Given CC(=O)N1CCC[C@]12CC=CCCCC1(CCCC=CCCCCCC[C@@](C)(C(=O)N[C@@H](Cc3ccccc3)C(=O)N[C@@H](Cc3csc4ccccc34)C(=O)N[C@@H](CCC(N)=O)C(N)=O)NC(=O)[C@H](CCC(N)=O)NC(=O)[C@H](Cc3ccccc3)NC(=O)[C@H](C)NC(=O)[C@H](C)NC(=O)[C@H](CC(=O)O)NC(=O)[C@H](CC(=O)O)NC1=O)NC(=O)[C@H](C)NC(=O)[C@H](CC(=O)O)NC2=O (stereo partly drawn) [I-294] , respond with its chromatographic logD.
-- reply 2

-- ask Given CC(=O)N1CCC[C@]12CC=CCCCC1(CCCC=CCCCCCC[C@@](C)(C(=O)N[C@@H](Cc3ccccc3)C(=O)N[C@@H](Cc3csc4ccccc34)C(=O)N[C@@H](CCC(N)=O)C(N)=O)NC(=O)[C@H](CCC(N)=O)NC(=O)[C@H](Cc3ccccc3)NC(=O)[C@H](C)NC(=O)[C@H](C)NC(=O)[C@H](CCC(=O)O)NC(=O)[C@H](CC(=O)O)NC1=O)NC(=O)[C@H](C)NC(=O)[C@H](CC(=O)O)NC2=O (stereo partly drawn) [I-406] , respond with its chromatographic logD.
-- reply 2.04

###

Property: CHI Log D; scope: individual compounds
assay: CHI Log D procedure; format: physicochemical; conditions: pH 7.4
The reply should be a number, written without any unit.

The cases that follow already have their CHI Log D on record.
-- ask Given CC(=O)N1CCC[C@]12CC=CCCCC1(CCCC=CCCCCOC(=O)N3CC[C@@](C(=O)N[C@@H](Cc4ccsc4)C(=O)N[C@@H](Cc4csc5ccccc45)C(=O)N[C@@H](CCC(N)=O)C(=O)N[C@@H](C)C(N)=O)(C3)NC(=O)[C@H](CC(N)=O)NC(=O)[C@H](Cc3ccccc3)NC(=O)[C@H](C)NC(=O)[C@H](C)NC(=O)[C@H](CC(=O)O)NC(=O)[C@H](CC(=O)O)NC1=O)NC(=O)[C@H](CC(C)(C)C)NC(=O)[C@H](CC(=O)O)NC2=O (stereo partly drawn) [I-826] , respond with its CHI Log D.
-- reply 2.066

-- ask Given CC(=O)N[C@@H](Cc1ccccc1)C(=O)N[C@@H](CC(=O)O)C(=O)N[C@@H](C)C(=O)N[C@]1(C)CCCCCCC=CCOC(=O)N2CC[C@@](C(=O)N[C@@H](Cc3ccccc3)C(=O)N[C@@H](Cc3c[nH]c4ccccc34)C(=O)N[C@@H](CCC(N)=O)C(N)=O)(C2)NC(=O)[C@H]([C@@H](C)O)NC(=O)[C@H](Cc2ccccc2)NC(=O)[C@H](C)NC(=O)[C@H](C)NC(=O)[C@H](CC(=O)O)NC(=O)[C@H](CC(=O)O)NC1=O [I-222] , respond with its CHI Log D.
-- reply 1.34

-- ask Given CC(=O)N[C@@H](Cc1ccccc1)C(=O)N[C@@H](CC(=O)O)C(=O)N[C@@H](C)C(=O)N[C@]1(C)CCCCCCC=CCOC(=O)N2CC[C@@](C(=O)N[C@@H](Cc3ccccc3)C(=O)N[C@@H](Cc3c[nH]c4ccccc34)C(=O)N[C@@H](CCC(N)=O)C(N)=O)(C2)NC(=O)[C@H](C(C)C)NC(=O)[C@H](Cc2ccccc2)NC(=O)[C@H](CCCC(=O)O)NC(=O)[C@H](C)NC(=O)[C@H](CC(=O)O)NC(=O)[C@H](CC(=O)O)NC1=O [I-23] , respond with its CHI Log D.
-- reply 0.942

-- ask Given CC(=O)N1CCC[C@]12CC=CCCCC1(CCCC=CCCCCCC[C@@](C)(C(=O)N[C@@H](Cc3ccccc3)C(=O)N[C@@H](Cc3csc4ccccc34)C(=O)N[C@@H](CCC(N)=O)C(N)=O)NC(=O)[C@H](CCC(N)=O)NC(=O)[C@H](Cc3ccccc3)NC(=O)[C@H](C)NC(=O)[C@H](C)NC(=O)[C@H](CCC(=O)O)NC(=O)[C@H](CC(=O)O)NC1=O)NC(=O)[C@H](CCCCNC(=O)CN=[N+]=[N-])NC(=O)[C@H](CC(=O)O)NC2=O (stereo partly drawn) [I-589] , respond with its CHI Log D.
-- reply 2.119

-- ask Given CC(=O)N1CCC[C@]12CC=CCCCC1(CCCC=CCCCCCC[C@@](C)(C(=O)N[C@@H](Cc3ccccc3)C(=O)N[C@@H](Cc3csc4ccccc34)C(=O)N[C@@H](CCC(N)=O)C(N)=O)NC(=O)[C@H](CC(N)=O)NC(=O)[C@H](Cc3ccccc3)NC(=O)[C@H](C)NC(=O)[C@H](C)NC(=O)[C@H](CC(=O)O)NC(=O)[C@H](CC(=O)O)NC1=O)NC(=O)[C@H](CCC(C)C)NC(=O)[C@H](CC(=O)O)NC2=O (stereo partly drawn) [I-548] , respond with its CHI Log D.
-- reply 2.528

More entries:
-- ask Given CC(=O)N1CCC[C@]12CC=CCCCC1(CCCC=CCCCCOC(=O)N3CC[C@@](C(=O)N[C@@H](Cc4ccsc4)C(=O)N[C@@H](Cc4csc5ccccc45)C(=O)N[C@@H](CCC(N)=O)C(N)=O)(C3)NC(=O)[C@H](CC(N)=O)NC(=O)[C@H](Cc3ccccc3)NC(=O)[C@H](C)NC(=O)[C@H](C)NC(=O)[C@H](CC(=O)O)NC(=O)[C@H](CC(=O)O)NC1=O)NC(=O)[C@H](CC(C)(C)C)NC(=O)[C@H](CC(=O)O)NC2=O (stereo partly drawn) [I-767] , respond with its CHI Log D.
-- reply 2.004

-- ask Given C[C@@H]1NC(=O)[C@H](C)NC(=O)[C@H](CN(CC(=O)O)CC(F)(F)F)NC(=O)[C@H](Cc2ccsc2)NC(=O)C2(CCCC=CCCCOC(=O)N3CC[C@@](C(=O)N[C@@H](CC(=O)O)C(=O)N[C@@H](Cc4csc5ccccc45)C(=O)N[C@@H](CCC(N)=O)C(N)=O)(C3)NC(=O)[C@H](CC(N)=O)NC(=O)[C@H](Cc3ccccc3)NC1=O)CCCC=CC[C@]1(CCCN1C(=O)CN=[N+]=[N-])C(=O)N[C@@H](CC(=O)O)C(=O)N[C@@H](CC(C)(C)C)C(=O)N2 (stereo partly drawn) [I-1057] , respond with its CHI Log D.
-- reply 1.92

-- ask Given CC(=O)N1CCC[C@]12CC=CCCCC1(CCCC=CCCCCCC[C@@](C)(C(=O)N[C@@H](Cc3ccccc3)C(=O)N[C@@H](Cc3csc4ccccc34)C(=O)N[C@H](Cc3c[nH]cn3)C(N)=O)NC(=O)[C@H](CC(N)=O)NC(=O)[C@H](Cc3ccccc3)NC(=O)[C@H](C)NC(=O)[C@H](C)NC(=O)[C@H](CCC(=O)O)NC(=O)[C@H](CC(=O)O)NC1=O)NC(=O)[C@H](CC(C)C)NC(=O)[C@H](CC(=O)O)NC2=O (stereo partly drawn) [I-744] , respond with its CHI Log D.
-- reply 2.557

-- ask Given CC(=O)N1CCC[C@]12CC=CCCCC1(CCCC=CCCCCCC[C@@](C)(C(=O)N[C@@H](Cc3ccccc3)C(=O)N[C@@H](Cc3csc4ccccc34)C(=O)N(C)[C@@H](Cc3cnc[nH]3)C(N)=O)NC(=O)[C@H](CC(N)=O)NC(=O)[C@H](Cc3ccccc3)NC(=O)[C@H](C)NC(=O)[C@H](C)NC(=O)[C@H](CCC(=O)O)NC(=O)[C@H](CC(=O)O)NC1=O)NC(=O)[C@H](CC(C)C)NC(=O)[C@H](CC(=O)O)NC2=O (stereo partly drawn) [I-747] , respond with its CHI Log D.
-- reply 2.492
